The origin of these recorded values is ChEMBL document CHEMBL4699601.

# Method description: in vitro
# Conditions: dog, MDCK-MDR1
Measured parameter: Papp A→B (×10⁻⁶ cm/s)
Numbers only, in ×10⁻⁶ cm/s.

{"columns": ["Cpd smiles", "Recorded number"],
 "data": [
  ["Oc1nnc(-c2ccc(Cl)c(C(F)(F)F)c2)s1", 45]
]}

Next, consider the following molecule.
Lab note: measured Papp A→B of Oc1nnc(-c2ccc(Cl)c(C(F)(F)F)c2)o1 was 34

----------
# Method description: Cmax in C57BL6 mouse plasma at 10 mg/kg, po measured up to 24 hrs
# Format: ADME, organism-based
# Design: route oral, dose 10 mg/kg, time <=24
Measured parameter: Cmax (ng/mL)
One number for each entry, in ng/mL.

Lab note: measured Cmax of Oc1nnc(-c2ccc(Cl)c(C(F)(F)F)c2)o1 was 16600
